Subject of test: NGF (nerve growth factor) (Homo sapiens, UniProt P01138 P01138:122-241)
Sequence (P01138 122-241, one chain of several): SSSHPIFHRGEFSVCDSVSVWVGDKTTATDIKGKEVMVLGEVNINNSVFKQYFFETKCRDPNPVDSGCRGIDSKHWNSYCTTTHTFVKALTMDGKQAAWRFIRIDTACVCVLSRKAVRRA
Protocol description: cell_activity; neurite; TF-1 0.083
Assay context: tags: R&D Systems; chain copies: 2
Observation type: IC50

| Binder | Value measured |
| --- | --- |
| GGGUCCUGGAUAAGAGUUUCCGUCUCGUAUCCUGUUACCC (ssRNA, as 82(1) except 2'-OMe U4,C6,U11,C21,U23,C26,U28,U30,C32,U35,C38-40) [SEQ ID NO: 82(22)] | < 0.1 nM |
